What pKi was measured for each of the following?
- Target entity: JAK1 (Homo sapiens, UniProt P23458)
- Construct: made in house; host or cells: SF9 insect cells (baculovirus)
- Sequence (P23458 852-1154): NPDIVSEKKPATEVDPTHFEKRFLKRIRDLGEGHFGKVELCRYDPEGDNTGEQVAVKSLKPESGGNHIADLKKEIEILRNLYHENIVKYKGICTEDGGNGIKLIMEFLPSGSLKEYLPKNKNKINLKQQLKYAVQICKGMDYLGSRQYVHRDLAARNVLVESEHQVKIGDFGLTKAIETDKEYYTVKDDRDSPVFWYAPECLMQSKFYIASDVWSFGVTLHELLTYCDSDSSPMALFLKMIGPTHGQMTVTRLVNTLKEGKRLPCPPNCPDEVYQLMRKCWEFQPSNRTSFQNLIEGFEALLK
- Assay summary: JAK1 inhibition (Table 4)
- Format: biochemical
- Assay conditions: read-out: JAK1 Ki
Reminder that pKi is minus the log10 of a molar concentration.

Exam item: Give the observed pKi of NCC(F)(F)c1nc2cnc3[nH]ccc3c2n1C1CCN(Cc2cccnc2)CC1 for JAK1 (Homo sapiens, UniProt P23458).
Marked response: 8.24

Exam item: Send back JAK1 (Homo sapiens, UniProt P23458) pKi of N#CCC(=O)N1CCC[C@@H](n2c(CCO)nc3cnc4[nH]ccc4c32)C1 only.
Marked response: 8.39

Exam item: Using JAK1 (Homo sapiens, UniProt P23458) as the test system, report measured pKi of Cc1nn(C)cc1CN1CCC(n2c([C@@H](C)O)nc3cnc4[nH]ccc4c32)CC1 .
Marked response: 7.04

Exam item: For JAK1 (Homo sapiens, UniProt P23458), give pKi of the listed molecule: c1cc2c(ncc3nc(C4CCCN4)n(C4CCCOC4)c32)[nH]1 (single isomer, unassigned) [Example 668]
Marked response: 5.99

Exam item: State pKi (JAK1 (Homo sapiens, UniProt P23458)) of CC(C)(O)[C@H]1CC[C@@H](n2cnc3cnc4[nH]ccc4c32)CC1 .
Marked response: 7.30

Exam item: Provide measured pKi on JAK1 (Homo sapiens, UniProt P23458) for N#CCCN1CCC(n2c(COCC3CCCC3)nc3cnc4[nH]ccc4c32)CC1 please.
Marked response: 7.27

Exam item: Under JAK1 (Homo sapiens, UniProt P23458), report pKi for CC1CC1COCc1nc2cnc3[nH]ccc3c2n1C1CCN(CCC#N)CC1 (centres unmarked)
Marked response: 7.18

Exam item: // fetch pKi; item: O=C(Cc1nc2cnc3[nH]ccc3c2n1C1CCCOC1)N1CCSCC1 (racemic) ; system: JAK1 (Homo sapiens, UniProt P23458)
Marked response: 7.71

Exam item: Specify the recorded pKi for Cc1nc(S(=O)(=O)N2CCC(n3cnc4cnc5[nH]ccc5c43)CC2)cn1C , system: JAK1 (Homo sapiens, UniProt P23458).
Marked response: 6.32

Exam item: Enter pKi (test system JAK1 (Homo sapiens, UniProt P23458)) for COCC(=O)NC1CCCC(n2cnc3cnc4[nH]ccc4c32)C1 (single isomer, unassigned) [Example 480]
Marked response: 6.58

Exam item: Under JAK1 (Homo sapiens, UniProt P23458): report pKi of CC(O)c1nc2cnc3[nH]ccc3c2n1C1CC2CCC1O2 (single isomer, unassigned) [Example 846] .
Marked response: 7.04

Exam item: Name the recorded pKi of C[C@@H](O)c1nc2cnc3[nH]ccc3c2n1C1CCN(CC(=O)N2CCOCC2)CC1 , assay system JAK1 (Homo sapiens, UniProt P23458).
Marked response: 6.57

Exam item: Specify pKi for N#CCCN1CCC(n2nnc3cnc4[nH]ccc4c32)CC1 , system JAK1 (Homo sapiens, UniProt P23458).
Marked response: 8.69

Exam item: Look up JAK1 (Homo sapiens, UniProt P23458) data: pKi of N#Cc1ccc(S(=O)(=O)N2CCC[C@@H](n3cnc4cnc5[nH]ccc5c43)C2)cc1 , then report it.
Marked response: 8.07

Exam item: Identify measured pKi obtained with JAK1 (Homo sapiens, UniProt P23458) for c1ccc(CN2CCC(n3c(C4CCC4)nc4cnc5[nH]ccc5c43)CC2)cc1 .
Marked response: 8.28

Exam item: Consider the molecule c1ccc(CN2CCC(n3c(CN4CCOCC4)nc4cnc5[nH]ccc5c43)CC2)cc1 tested on JAK1 (Homo sapiens, UniProt P23458); state its pKi.
Marked response: 6.92

Exam item: Provide JAK1 (Homo sapiens, UniProt P23458) pKi reading for CN(Cc1nc2cnc3[nH]ccc3c2n1C1CCN(Cc2ccccc2)CC1)S(C)(=O)=O .
Marked response: 7.71
